Exercise: for every item that follows, state its recorded IC50.
molecular target: TNFα (Homo sapiens, UniProt P01375); assay: HEK-Blue hTNFα reporter assay; format: cell-based; set-up: purchased R&D biosystem (R&D Systems) 210-TA-020/CF; details: HEK-Blue hTNFα reporter cells, SEAP readout; read-out: IC50 Range
Sequence (P01375 77-233 limits assumed): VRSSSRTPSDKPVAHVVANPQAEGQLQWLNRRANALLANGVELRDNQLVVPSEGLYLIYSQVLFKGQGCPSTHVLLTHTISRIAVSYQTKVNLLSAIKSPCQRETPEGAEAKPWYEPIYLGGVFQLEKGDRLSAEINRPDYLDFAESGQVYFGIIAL

Example compounds with recorded IC50:
{"compound": "Cc1nc(C2(N)CCC2)ncc1-c1ccn2nc3c(c2c1)[C@@H]1C[C@H]3NC(=O)c2cccc(OC(F)F)c21", "IC50": "< 25 nM"}
{"compound": "[2H]C([2H])([2H])N1C(=O)c2cccc(C#N)c2[C@H]2C[C@@H]1c1nn3ccc(-c4cnc(C5(N)CCC5)nc4)nc3c12", "IC50": "25 to 100 nM"}
{"compound": "C[C@@H](O)c1ncc(-c2ccn3nc4c(c3c2)[C@@H]2C[C@H]4N(C)C(=O)c3cccc(OC(F)F)c32)cn1", "IC50": "< 25 nM"}
{"compound": "CN1C(=O)c2cccc(OC(F)F)c2[C@H]2C[C@@H]1c1nn3ccc(-c4cnc(C(C)(C)O)nc4)nc3c12", "IC50": "25 to 100 nM"}

Please state IC50 for every compound in the list that follows.
1. CN1C(=O)c2cccc(OC(F)F)c2[C@H]2C[C@@H]1c1nn3cc(F)c(-c4cnc([C@]5(O)C[C@@](C)(O)C5)cn4)cc3c12
2. CN1C(=O)c2cccc(OC(F)F)c2[C@H]2C[C@@H]1c1nn3cc(F)c(-c4cnc([C@]5(N)C[C@@](C)(O)C5)nc4)cc3c12

["< 25 nM", "< 25 nM"]

Please state IC50 for every compound in the list that follows.
1. CN1C(=O)c2cccc(OC(F)F)c2[C@H]2C[C@@H]1c1nn3ccc(C4=CCC(C(C)(C)O)CC4)nc3c12 (stereo partly drawn)
2. CN1C(=O)c2cccc(OC(F)F)c2[C@H]2C[C@@H]1c1nn3ccc(-c4ncc([C@@H](O)C5COC5)cn4)cc3c12
3. [2H]C([2H])([2H])N1C(=O)c2cccc(OC(F)F)c2[C@H]2C[C@@H]1c1nn3ccc(-c4cnc([C@]5(N)C[C@@](C)(O)C5)nc4C)nc3c12
4. CN1C(=O)c2cccc(OC(F)F)c2[C@H]2C[C@@H]1c1nn3ccc(-c4ccc(P(C)(C)=O)cc4)cc3c12
5. [2H]C([2H])([2H])N1C(=O)c2cccc(OC(F)F)c2[C@H]2C[C@@H]1c1nn3cc(F)c(-c4cnc([C@]5(N)C[C@@H](O)C5)nc4)nc3c12
6. CN1C(=O)c2cccc(OC3CC3)c2[C@H]2C[C@@H]1c1nn3ccc(-c4cnc([C@]5(O)C[C@@](C)(O)C5)nc4)cc3c12
7. [2H]C([2H])([2H])N1C(=O)c2cccc(OC(F)F)c2[C@H]2C[C@@H]1c1nn3ccc(-c4cnc([C@H](N)C5CC5)nc4)nc3c12

1: 25 to 100 nM; 2: < 25 nM; 3: < 25 nM; 4: < 25 nM; 5: 25 to 100 nM; 6: < 25 nM; 7: < 25 nM

Please state IC50 for every compound in the list that follows.
1. C[C@H](O)[C@@H](O)c1ncc(-c2ccn3nc4c(c3c2)[C@@H]2C[C@H]4N(C)C(=O)c3cccc(OC(F)F)c32)cn1
2. CN1C(=O)c2cccc(OC(F)F)c2[C@H]2C[C@@H]1c1nn3cc(F)c(-c4ccc(P(C)(C)=O)nc4)cc3c12
3. [2H]C([2H])([2H])N1C(=O)c2cccc(OC(F)F)c2[C@H]2C[C@@H]1c1nn3cnc(-c4cnc([C@]5(O)C[C@](C)(C#N)C5)nc4)cc3c12
4. [2H]C([2H])([2H])N1C(=O)c2ccc(F)c(OC(F)F)c2[C@H]2C[C@@H]1c1nn3ccc(-c4cnc([C@]5(N)C[C@@](C)(O)C5)nc4)nc3c12
5. [2H]C([2H])([2H])N1C(=O)c2cccc(OC(F)F)c2[C@H]2C[C@@H]1c1nn3ccc(-c4cnc(C5(N)CCC5)nc4)cc3c12
6. CN1C(=O)c2cccc(OC(F)F)c2[C@H]2C[C@@H]1c1nn3ccc(-c4cnc(OCP(C)(C)=O)nc4)cc3c12
7. [2H]C([2H])([2H])N1C(=O)c2cccc(OC(F)F)c2[C@H]2C[C@@H]1c1nn3cc(F)c(-c4cnc([C@]5(N)C[C@](O)(C(F)(F)F)C5)nc4)nc3c12

["< 25 nM", "< 25 nM", "< 25 nM", "< 25 nM", "< 25 nM", "< 25 nM", "< 25 nM"]

Please state IC50 for every compound in the list that follows.
1. CN1C(=O)c2cccc(OC(F)F)c2[C@H]2C[C@@H]1c1nn3ccc(-c4cnc([C@@](C)(O)C5COC5)nc4)cc3c12
2. [2H]C([2H])([2H])N1C(=O)c2cccc(OC(F)F)c2[C@H]2C[C@@H]1c1nn3ccc(-c4cnc([C@]5(N)CCOC5)nc4)nc3c12
3. CN1C(=O)c2cc(F)cc(OC(F)F)c2[C@H]2C[C@@H]1c1nn3ccc(-c4ccc(P(C)(C)=O)nc4)cc3c12
4. CN1C(=O)c2cccc(OC(F)F)c2[C@H]2C[C@@H]1c1nn3ccc(-c4cnc(P(C)(C)=O)cn4)cc3c12

1. < 25 nM
2. < 25 nM
3. < 25 nM
4. < 25 nM

Data origin, for the record: patent US12410179B2
